- testName: P. aeruginosa biofilm formation inhibitors, primary screen, PAO1 strain, BacTiter-Glo luminescence, LB-PBS (AID 1144)
- experimentalContext: 12 h, higher = more signal
attributeMeasured: z-score
API note: the answer field is a bare number with no unit suffix.

Look up and state reported z-score for COC(=O)[C@@]1(Cc2ccc(OC)cc2)[C@H]2c3cc(C(=O)N4CCCC4)n(CCN4CNCC4=O)c3C[C@H]2CN1C(=O)c1ccccc1
-0.12

Look up and state reported z-score for COCCCNC(=O)[C@@]1(C)c2ccccc2C(=O)N(C(C)C)[C@H]1c1ccc(CO)cc1
0.0334

Look up and state reported z-score for OCCCC1=CC(c2cccs2)N(Cc2cc3c(cc2Br)OCO3)CC1 (centres undefined)
-0.137

Look up and state reported z-score for C=CCNC(=O)[C@H]1[C@@H]2C(=O)O[C@@H](c3ccccc3)[C@@H](c3ccccc3)N2[C@@H](c2ccccc2OCCO)[C@]12C(=O)Nc1ccc(C#CCCO)cc12
0.481
